# targetOfAssay: equine FcRn (large alpha subunit p51) in complex with equine beta-2-microglobulin (equine) (UniProt F6XZ61)
# assay: SPR (Biacore), pH 6
measuredEndpoint: Kd (nM)
Your answer should be a plain number; it is taken to be in nM.

q: Output Kd of equine IgG7 N434H mutant (antibody, part only; not given: Variable domains, not shown: another chain or arm of the molecule; small tags and cut ends) constant: ASTTAPKVFPLASHSAATSGSTVALGCLVSSYFPEPVTVSWNSGALTSGVHTFPSVLQSSGLYSLSSMVTVPASSLKSQTYICNVAHPASSTKVDKKIVIKECGGCPTCPECLSVGPSVFIFPPKPKDVLMISRTPTVTCVVVDVGHDFPDVQFNWYVDGVETHTATTEPKQEQNNSTYRVVSILAIQHKDWLSGKEFKCKVNNQALPAPVQKTISKPTGQPREPQVYVLAPHRDELSKNKVSVTCLVKDFYPTDIDIEWKSNGQPEPETKYSTTPAQLDSDGSYFLYSKLTVETNRWQQGTTFTCAVMHEALHHHYTEKSVSKSPGK
a: 25.3

q: Output Kd of equine IgG7 Y436W mutant (antibody, part only; not given: Variable domains, not shown: another chain or arm of the molecule) constant: ASTTAPKVFPLASHSAATSGSTVALGCLVSSYFPEPVTVSWNSGALTSGVHTFPSVLQSSGLYSLSSMVTVPASSLKSQTYICNVAHPASSTKVDKKIVIKECGGCPTCPECLSVGPSVFIFPPKPKDVLMISRTPTVTCVVVDVGHDFPDVQFNWYVDGVETHTATTEPKQEQNNSTYRVVSILAIQHKDWLSGKEFKCKVNNQALPAPVQKTISKPTGQPREPQVYVLAPHRDELSKNKVSVTCLVKDFYPTDIDIEWKSNGQPEPETKYSTTPAQLDSDGSYFLYSKLTVETNRWQQGTTFTCAVMHEALHNHWTEKSVSKSPGK
a: 28.2

q: Output Kd of equine IgG7 D312Y mutant (antibody, part only; not given: variable domains, not shown: another chain or arm of the molecule) constant: ASTTAPKVFPLASHSAATSGSTVALGCLVSSYFPEPVTVSWNSGALTSGVHTFPSVLQSSGLYSLSSMVTVPASSLKSQTYICNVAHPASSTKVDKKIVIKECGGCPTCPECLSVGPSVFIFPPKPKDVLMISRTPTVTCVVVDVGHDFPDVQFNWYVDGVETHTATTEPKQEQNNSTYRVVSILAIQHKYWLSGKEFKCKVNNQALPAPVQKTISKPTGQPREPQVYVLAPHRDELSKNKVSVTCLVKDFYPTDIDIEWKSNGQPEPETKYSTTPAQLDSDGSYFLYSKLTVETNRWQQGTTFTCAVMHEALHNHYTEKSVSKSPGK
a: 9.4

q: Output Kd of equine IgG7 N434Y mutant (antibody, part only; not given: Variable domains, not shown: another chain or arm of the molecule) constant: ASTTAPKVFPLASHSAATSGSTVALGCLVSSYFPEPVTVSWNSGALTSGVHTFPSVLQSSGLYSLSSMVTVPASSLKSQTYICNVAHPASSTKVDKKIVIKECGGCPTCPECLSVGPSVFIFPPKPKDVLMISRTPTVTCVVVDVGHDFPDVQFNWYVDGVETHTATTEPKQEQNNSTYRVVSILAIQHKDWLSGKEFKCKVNNQALPAPVQKTISKPTGQPREPQVYVLAPHRDELSKNKVSVTCLVKDFYPTDIDIEWKSNGQPEPETKYSTTPAQLDSDGSYFLYSKLTVETNRWQQGTTFTCAVMHEALHYHYTEKSVSKSPGK
a: 3.7
